experiment: chemical genetic growth profiling, strain panel (AID 1159580);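 further: tested at 20 µM; growth read once vehicle control cultures reached saturation at 30 °C; 1 = growth at the plate median or of vehicle wells; lower values mean less growth of the strain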; details: S. cerevisiae deletion strains, growth OD, locus YNL183C, strain NPR1, stronger effect = lower value
The campaign covered roughly 5,500 compounds. About 2,000 (36%) were called active. Roughly 18% stayed inconclusive and do not appear here. Some of the results follow.

# STRUCTURE_SMILES, normalized growth
measured = [
    ("C[n+]1cc2c3c(ccc2c2ccc4cc5c(cc4c21)OCO5)OCO3", 0.923),
    ("O=c1c2ccccc2[se]n1-c1ccccc1", 0.841),
    ("COc1cccc(-c2cc(=O)c3cc(OC)ccc3o2)c1", 0.96),
    ("O=C(O)/C=C(\\CC(=O)O)C(=O)O", 0.979),
    ("COc1ccc(-c2cc(=O)c3c(OC)c(OC)c(OC)c(OC)c3o2)cc1", 0.937),
    ("ClC(Cl)=C(c1ccc(Cl)cc1)c1ccc(Cl)cc1", 0.986),
    ("COc1cc2c(cc1OC)-c1cc3ccc(OC)c(OC)c3c[n+]1CC2", 0.978),
    ("COc1cc2cc[n+]3cc4c(OC)c(OC)ccc4cc3c2cc1OC", 0.95),
]

----------
test: chemical genetic growth profiling, strain panel (AID 1159580);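 further: tested at 20 µM; growth read once vehicle control cultures reached saturation at 30 °C; 1 = growth at the plate median or of vehicle wells; lower values mean less growth of the strain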; conditions: S. cerevisiae deletion strains, growth OD, locus YAL021C, strain ccr4, stronger effect = lower value
Among all 5,500 compounds or so, about 2,000 (36%) were called active. Another 18% or so got no clear call; they are omitted. Some of the results follow.
Please respond with yes when measured normalized growth is strictly beneath 1, and with no in all other cases.

# MOLECULE, CLASS_ASSIGNMENT
records = [
    ("CC(=O)O[C@H]1C[C@@]2(C)[C@H](c3ccoc3)OC(=O)[C@H]3O[C@]32[C@@]2(C)C1[C@]1(C)C(C[C@H]2OC(C)=O)C(C)(C)[C@H](OC(C)=O)C[C@@H]1OC(C)=O (some centres not stated)", "no"),
    ("CCCCCCCCCc1ccc(O)cc1", "yes"),
    ("COc1ccc(-c2cc(=O)c3ccccc3o2)cc1", "yes"),
    ("O=C1c2c(O)ccc(O)c2C(=O)c2c(NCCNCCO)ccc(NCCNCCO)c21", "yes"),
    ("CC(=O)O.CC(=O)O.[Cd]", "yes"),
    ("COc1ccc(-c2cc(=O)c3c(OC(C)=O)cc(OC(C)=O)cc3o2)cc1", "yes"),
    ("O=C(/C=C/c1ccccc1)c1ccc(O)cc1", "yes"),
    ("CCCCCCc1ccc(O)cc1O", "yes"),
    ("CC(C(=O)O)[C@H]1CCC2C3CC=C4C[C@@H](O)CC[C@]4(C)C3CC[C@@]21C (some centres not stated)", "yes"),
    ("CC(=O)Oc1c(-c2ccccc2)oc2c(CC=C(C)C)c3c(c(OC(C)=O)c2c1=O)C=CC(C)(C)O3", "no"),
    ("C/C(=C\\C(=O)OCCCCCCCCC(=O)O)C[C@@H]1OC[C@H](C[C@@H]2O[C@H]2[C@@H](C)[C@H](C)O)[C@@H](O)[C@H]1O", "yes"),
]

----------
assay: chemical genetic growth profiling, strain panel (AID 1159580);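 further: tested at 20 µM; growth read once vehicle control cultures reached saturation at 30 °C; 1 = growth at the plate median or of vehicle wells; lower values mean less growth of the strain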; conditions: S. cerevisiae deletion strains, growth OD, locus YBR171W, strain sec66, stronger effect = lower value
The whole screen tested about 5,500 compounds, of which about 2,000 (36%) were called active. About 18% were inconclusive and are not listed. This is one part of the list.
Entries and their normalized growth values follow.

# MOLECULE, normalized growth
data = [
    ("N[C@@H]1CONC1=O", 0.974),
    ("COc1ccc(-c2cc(=O)c3c(O)c(OC)c(OC)c(OC)c3o2)cc1", 0.999),
    ("COc1ccc(-c2cc(=O)c3c(OC)c(OC)c(OC)c(OC)c3o2)cc1", 0.961),
    ("CCCCCCCCCCCCCCCC[n+]1ccccc1", 0.0739),
    ("CC1(C)O[C@@H]2CC3C4C[C@H](F)C5=CC(=O)C=C[C@]5(C)[C@@]4(F)[C@@H](O)C[C@]3(C)[C@]2(C(=O)CO)O1 (stereo partly drawn)", 1.02),
    ("CC(=O)N(O)CCCCCNC(=O)CCC(=O)N(O)CCCCCNC(=O)CCC(=O)N(O)CCCCCN", 1.01),
    ("NS(=O)(=O)c1cc2c(cc1C(F)(F)F)NCNS2(=O)=O", 1.01),
    ("CC(=O)Oc1c(-c2ccccc2)oc2c(CC=C(C)C)c3c(c(OC(C)=O)c2c1=O)C=CC(C)(C)O3", 1.01),
]
